Molecular target: T1, cSNK:BSA conjugate (bovine, head-to-tail cyclized; conjugated to BSA carrier)
T1 construct: also called BSA-cSNK
T1 sequence (P02769 25-607 limits assumed): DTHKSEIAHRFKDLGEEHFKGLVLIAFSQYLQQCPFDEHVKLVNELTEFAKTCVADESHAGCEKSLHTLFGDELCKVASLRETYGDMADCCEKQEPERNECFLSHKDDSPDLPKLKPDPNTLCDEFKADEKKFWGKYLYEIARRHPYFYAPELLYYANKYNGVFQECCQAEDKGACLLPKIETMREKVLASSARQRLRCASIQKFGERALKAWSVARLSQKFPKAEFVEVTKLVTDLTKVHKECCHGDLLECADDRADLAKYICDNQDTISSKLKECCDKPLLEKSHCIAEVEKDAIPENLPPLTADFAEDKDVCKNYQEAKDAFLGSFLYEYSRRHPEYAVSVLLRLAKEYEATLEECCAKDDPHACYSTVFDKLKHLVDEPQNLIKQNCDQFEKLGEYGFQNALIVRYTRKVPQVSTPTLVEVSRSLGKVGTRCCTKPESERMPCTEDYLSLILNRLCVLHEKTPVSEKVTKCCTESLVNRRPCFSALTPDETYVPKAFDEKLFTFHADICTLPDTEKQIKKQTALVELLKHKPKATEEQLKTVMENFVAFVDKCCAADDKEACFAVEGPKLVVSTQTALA
Test: BLI 2:1 fit, site 2 (kon2); 100 nM row
Reported kon values for a set of binders
property.name: kon (M⁻¹ s⁻¹)

{"columns": ["binder", "value.reported"],
 "data": [
  ["rehu5E3-IgG4 (antibody, V domains shown, human IgG4/kappa; also called IgG4 rehu version) VH: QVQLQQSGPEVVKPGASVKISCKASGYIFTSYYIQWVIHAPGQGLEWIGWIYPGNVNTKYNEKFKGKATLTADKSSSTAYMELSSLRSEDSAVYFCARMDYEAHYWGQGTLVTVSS VL: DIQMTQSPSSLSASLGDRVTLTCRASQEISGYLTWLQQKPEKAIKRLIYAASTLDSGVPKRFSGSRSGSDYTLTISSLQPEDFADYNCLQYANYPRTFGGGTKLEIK", "4.44e+06"],
  ["hu5E3-IgG2 (antibody, V domains shown, human IgG2/kappa; also called humanized 5E3 IgG2) VH: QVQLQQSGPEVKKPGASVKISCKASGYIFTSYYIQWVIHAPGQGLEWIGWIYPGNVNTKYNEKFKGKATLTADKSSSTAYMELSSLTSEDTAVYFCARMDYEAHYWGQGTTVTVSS VL: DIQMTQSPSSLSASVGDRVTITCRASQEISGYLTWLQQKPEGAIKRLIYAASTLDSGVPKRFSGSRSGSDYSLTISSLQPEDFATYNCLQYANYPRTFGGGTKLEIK", "5.28e+06"],
  ["hu5E3-IgG4 (antibody, V domains shown, human IgG4/kappa; also called humanized 5E3 IgG4) VH: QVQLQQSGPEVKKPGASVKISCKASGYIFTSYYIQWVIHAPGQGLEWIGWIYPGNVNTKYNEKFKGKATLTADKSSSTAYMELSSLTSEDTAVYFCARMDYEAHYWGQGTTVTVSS VL: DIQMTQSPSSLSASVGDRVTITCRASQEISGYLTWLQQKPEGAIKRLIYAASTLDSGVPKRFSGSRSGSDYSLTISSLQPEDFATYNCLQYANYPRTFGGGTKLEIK", "7.52e+06"]
]}
